Molecular target: RsmA (Pseudomonas aeruginosa) (UniProt O69078)
Sequence (O69078 whole entry): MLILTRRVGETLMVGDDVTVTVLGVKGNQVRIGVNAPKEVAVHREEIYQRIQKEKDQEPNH
Test: EMSA
Details: 10 mM Tris-Cl pH 7.5, 10 mM MgCl2, 100 mM KCl, 0.5 ug/ul yeast RNA, 7.5% glycerol, SUPERase In; 5 nM RNA; 30 min at 37 C; 6% native PAGE at 4 C
property: binding

polymer_sequence="GGACAAAAUAAGCAAAUGGAGCGUAUGACCAUGGACAAACCGGCCUCGCGGCAUUUCAGCGUCUUGAUCAUCGAUGAUGAACCCCAGGUGACCUCGGAACUCCGCGAACUGCUGGAAAACGGGGGGGGGUUUUUUUU [pprB leader RNA]" study_system="RsmA (Pseudomonas aeruginosa) (UniProt O69078)" property=binding result=binds
polymer_sequence="GGCAUCAGCGACCAAAGCAAUCCGUUUGCUAUUGAACUCCCAGCCUGGGAGAUAUCCCUGAAGCGACUGGCUCAAGGGACGGGUCGACAAACAAAAACAACAAGCCCGAAAUCAUAAUAAAAACAAAGCACGCACCUACUUGGGGGGGGGUUUUUUUU [3' CrcZ]" study_system="RsmA (Pseudomonas aeruginosa) (UniProt O69078)" property=binding result=binds
polymer_sequence="GGGUCAGGACAUUGCGCAGGAAGCGCCAAAGACAAUACGGAAACUCAGGGAAUCCACCAUGGAUGGUGGCGUAGCACGGAUGUCAGGAUAGAGGUCUGCAAAACCCCGCCCAAAAGGCGGGGGGGGGUUUUUUUU [RsmY full length]" study_system="RsmA (Pseudomonas aeruginosa) (UniProt O69078)" property=binding result=binds
